Below is a list of entries, each paired with its recorded pIC50 value.
molecular target: Syk catalytic domain (aa 356-635 with a C-terminal His-tag) (Homo sapiens, UniProt P43405); construct: His-tag (C); made in house; assay: In vitro Syk kinase activity measured by trFRET, Syk catalytic domain; format: biochemical
pIC50: −log10 of the molar value.

Guide cases for pIC50, answers given:
**Q:** What measured pIC50 goes with CC(C)(O)c1ccc(-c2nc([C@@H]3CCNC3)n3c2cnc2[nH]ccc23)cc1 [P.3.1.10] ?
**A:** 6.00 to 7.00

**Q:** Data request, read-out pIC50, for Cc1nc(-c2ccc(C(C)(C)O)s2)c2cnc3[nH]ccc3n12 [S.1.11]
**A:** > 7.00

**Q:** I am curious: what pIC50 value has been reported for CS(=O)(=O)c1ccc(-c2nc(COCCN)n3c2cnc2[nH]ccc23)cc1 [T.4.1.1] ?
**A:** 6.00 to 7.00

**Q:** Entry CNS(=O)(=O)c1ccc(-c2nc(C)n3c2cnc2[nH]ccc23)cc1 [AC.1.9] has what pIC50?
**A:** > 7.00

**Q:** Please give the measured pIC50 for this compound: COc1ccc(-c2ncn3c2cnc2[nH]ccc23)cc1Cl [AC.4.9]
**A:** > 7.00

More entries:
**Q:** Please give the measured pIC50 for this compound: CCCNC(=O)c1ccc(-c2nc(C)n3c2cnc2[nH]ccc23)cc1 [AC.1.29]
**A:** > 7.00

**Q:** What measured pIC50 goes with Cc1nc(-c2ccc(S(=O)(=O)N3CCN(C)CC3)cc2)c2cnc3[nH]ccc3n12 [AC.1.12] ?
**A:** 5.00 to 6.00

====

Reported IC50 values are given for each entry in this list.
target: Syk catalytic domain (aa 356-635 with a C-terminal His-tag) (Homo sapiens); construct: His-tag (C); made in house; assay: In vitro Syk kinase activity measured by trFRET, Syk catalytic domain; format: biochemical; conditions: Syk catalytic domain (aa 356-635), trFRET, 0.001 mM ATP

Would you please look over these solved cases?
**Q:** Any idea what IC50 was measured for COc1ccc(-c2cc3c(ncc4c(C)nc(C)n43)[nH]2)cc1 ?
**A:** 100 to 1000 nM

**Q:** Need IC50 of CC(C)(O)c1ccc(-c2nc(-c3ccccc3CN)n3c2cnc2[nH]ccc23)cc1 , thanks.
**A:** 100 to 1000 nM

**Q:** IC50 for CN(C)S(=O)(=O)c1cccc(-c2cc3c(ncc4cnn(C)c43)[nH]2)c1 ?
**A:** < 100 nM

**Q:** Entry under review: COc1ccc(-c2nc(C)n3c2cnc2[nH]ccc23)cc1 . Reported IC50?
**A:** < 100 nM

**Q:** // returns reported IC50 for input Cc1cc(C(C)(C)O)ccc1-c1nc(C)n2c1cnc1[nH]ccc12
**A:** 1000 to 10000 nM

**Q:** For CCCNC(=O)c1cc(-c2nc(C)n3c2cnc2[nH]ccc23)ccc1OC , what is its reported IC50?
**A:** 100 to 1000 nM

**Q:** Entry under review: COc1ccc(-c2nc(N3CCN(C)CC3)n3c2cnc2[nH]ccc23)cc1 . Reported IC50?
**A:** 1000 to 10000 nM

New cases:
**Q:** Fill in the blank: the reported IC50 of COc1ccc2c(c1)c(-c1cc3c4c(cnc3[nH]1)CCN4C)cn2C is ____.
**A:** 1000 to 10000 nM
